System: UO-31 renal
experiment: NCI tumour cell line growth inhibition, 48 h; in the data active means GI50 below about 0.43 µM; inactive means the rest
A correct response names exactly one class from 1 for active, 0 for inactive

// return assay outcome for COc1cc(C2c3cc4c(cc3C3OC(=O)C2C3CO)OCO4)cc(OC)c1OC (centres undefined)
1

// return assay outcome for O=C1C=C(N2CC2)c2ccccc2C1=O
0

// return assay outcome for O=C1C2C(C(=O)[N]1[Hg][c]1ccccc1)C1(Cl)C(Cl)=C(Cl)C2(Cl)C1(Cl)Cl (centres undefined)
0

// return assay outcome for Cc1cc2nc3ccc(N=Nc4ccc(N(C)C)cc4)cc3n(-c3ccccc3)c-2cc1=N
1

// return assay outcome for CC(C)(C)c1ccc(C(=O)N/N=C/c2ccc(O)cc2O)cc1
1

// return assay outcome for CC[C@](O)(C(=O)O)c1cc2n(c(=O)c1CO)Cc1cc3ccccc3nc1-2
1

// return assay outcome for CC12C=CC(C)(O1)C1C2c2ccccc2S1(=O)=O (centres undefined)
0

// return assay outcome for NCCCn1c2c(c3ccc([N+](=O)[O-])cc3c1=O)C(=O)c1cc3c(cc1-2)OCO3
1

// return assay outcome for CC(=O)OC1CCC2(C)C(CCC3C2CCC2(C)C(C4=CC(=O)OC4)CCC32)C1 (centres undefined)
0

---

Please respond with reported TGI for every item in the list.
Tested on: NCI-H522 lung
experiment: NCI tumour cell line growth inhibition, 48 h
// return numeric value only (unit: µM, not printed)

Report measured TGI; entry is Nc1c(C(=O)Nc2cccc3ccccc23)sc2nc3c(cc12)CCCC3
4.6

Report measured TGI; entry is NC1=CC(=O)C(=O)c2cccnc21
22.6

Report measured TGI; entry is CC(=O)OC1CCC2(C)C(CCC3C2CCC2(C)C(C4=CC(=O)OC4)CCC32)C1 (stereo not given)
3.99

Report measured TGI; entry is C/C1=C\CC[C@@](C)(O)[C@H]2C[C@H](CC/C(C)=C/CC1)C1(CC1)C(=O)O2
62.9

---

Please respond with reported TGI for every item in the list.
System: M14 melanoma
experiment: NCI tumour cell line growth inhibition, 48 h
// return numeric value only (unit: µM, not printed)

Tell me TGI of N/C(=N\OC(=O)NC(Cl)=C(Cl)Cl)c1cc(C(F)(F)F)cc(C(F)(F)F)c1 when tested on M14 melanoma.
70.4

Tell me TGI of c1ccc(C(=NNc2nc3ccccc3[nH]2)c2ccccn2)nc1 when tested on M14 melanoma.
1.84

Tell me TGI of ClCc1c(-c2ccccc2)nn(-c2ccccc2)c1CCl when tested on M14 melanoma.
35.5

Tell me TGI of O=C(c1ccc(Cl)cc1)N1N=C(c2ccc(Cl)cc2)CC1(O)c1cc(F)c(Cl)cc1Cl (stereo not given) when tested on M14 melanoma.
78.3

Tell me TGI of COc1ccc(-c2nnc3n(C)c(=O)c4ccccc4n23)cc1O when tested on M14 melanoma.
25.9

---

Please respond with reported TGI for every item in the list.
Tested on: NCI-H226 lung
experiment: NCI tumour cell line growth inhibition, 48 h

Report measured TGI; entry is CC1CCC2c3c([nH]c4ccccc34)C3C(=O)N(C4CCCCC4)C(=O)C3C2C1 (stereo unspecified)
36 µM

Report measured TGI; entry is COC(=O)c1ccc(C)cc1C1CN=NC12Cc1cc(C)c(C)cc1C2=O (stereo unspecified)
> 100 µM

Report measured TGI; entry is C=CCN1CC2CN=NC2(C#N)C1 (stereo unspecified)
> 100 µM

Report measured TGI; entry is CC(/C=N/NC1=NCCCCN1)=N\NC1=NCCCCN1
> 100 µM

Report measured TGI; entry is COc1cc(C2c3cc4c(cc3C3OC(=O)C2C3CO)OCO4)cc(OC)c1OC (stereo unspecified)
> 100 µM

Report measured TGI; entry is O=C(CCc1cc(O)cc(O)c1)NCCc1ccc(O)c(O)c1
> 100 µM
